Target: Monoglyceride lipase (Homo sapiens, UniProt Q99685)
Sequence (Q99685 whole entry): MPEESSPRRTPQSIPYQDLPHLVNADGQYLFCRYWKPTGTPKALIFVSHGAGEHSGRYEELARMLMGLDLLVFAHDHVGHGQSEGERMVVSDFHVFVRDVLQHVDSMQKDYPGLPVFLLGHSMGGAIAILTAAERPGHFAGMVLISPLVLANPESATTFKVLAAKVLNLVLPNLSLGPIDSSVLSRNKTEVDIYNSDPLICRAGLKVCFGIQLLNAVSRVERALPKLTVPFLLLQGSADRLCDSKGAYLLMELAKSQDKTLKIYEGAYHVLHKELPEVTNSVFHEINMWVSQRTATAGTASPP

| Compound | Unit Symbol | IC50 |
| --- | --- | --- |
| CC1c2nn(C)c(-c3cc(F)cc(F)c3)c2CCN1C(=O)c1cc(F)cc(OCC2CNC(=O)C2)c1Cl (stereo unspecified) | nM | 5 |

Where these numbers come from: ChEMBL document CHEMBL5357008
